Experimental target: TYK2 (Homo sapiens, UniProt P29597)
Construct: endogenous in cells; host or cells: Molt4 (ATCC CRL-1582) and Ramos (ATCC CRL-1596), mixed lysate 1:2
Sequence (P29597 whole entry): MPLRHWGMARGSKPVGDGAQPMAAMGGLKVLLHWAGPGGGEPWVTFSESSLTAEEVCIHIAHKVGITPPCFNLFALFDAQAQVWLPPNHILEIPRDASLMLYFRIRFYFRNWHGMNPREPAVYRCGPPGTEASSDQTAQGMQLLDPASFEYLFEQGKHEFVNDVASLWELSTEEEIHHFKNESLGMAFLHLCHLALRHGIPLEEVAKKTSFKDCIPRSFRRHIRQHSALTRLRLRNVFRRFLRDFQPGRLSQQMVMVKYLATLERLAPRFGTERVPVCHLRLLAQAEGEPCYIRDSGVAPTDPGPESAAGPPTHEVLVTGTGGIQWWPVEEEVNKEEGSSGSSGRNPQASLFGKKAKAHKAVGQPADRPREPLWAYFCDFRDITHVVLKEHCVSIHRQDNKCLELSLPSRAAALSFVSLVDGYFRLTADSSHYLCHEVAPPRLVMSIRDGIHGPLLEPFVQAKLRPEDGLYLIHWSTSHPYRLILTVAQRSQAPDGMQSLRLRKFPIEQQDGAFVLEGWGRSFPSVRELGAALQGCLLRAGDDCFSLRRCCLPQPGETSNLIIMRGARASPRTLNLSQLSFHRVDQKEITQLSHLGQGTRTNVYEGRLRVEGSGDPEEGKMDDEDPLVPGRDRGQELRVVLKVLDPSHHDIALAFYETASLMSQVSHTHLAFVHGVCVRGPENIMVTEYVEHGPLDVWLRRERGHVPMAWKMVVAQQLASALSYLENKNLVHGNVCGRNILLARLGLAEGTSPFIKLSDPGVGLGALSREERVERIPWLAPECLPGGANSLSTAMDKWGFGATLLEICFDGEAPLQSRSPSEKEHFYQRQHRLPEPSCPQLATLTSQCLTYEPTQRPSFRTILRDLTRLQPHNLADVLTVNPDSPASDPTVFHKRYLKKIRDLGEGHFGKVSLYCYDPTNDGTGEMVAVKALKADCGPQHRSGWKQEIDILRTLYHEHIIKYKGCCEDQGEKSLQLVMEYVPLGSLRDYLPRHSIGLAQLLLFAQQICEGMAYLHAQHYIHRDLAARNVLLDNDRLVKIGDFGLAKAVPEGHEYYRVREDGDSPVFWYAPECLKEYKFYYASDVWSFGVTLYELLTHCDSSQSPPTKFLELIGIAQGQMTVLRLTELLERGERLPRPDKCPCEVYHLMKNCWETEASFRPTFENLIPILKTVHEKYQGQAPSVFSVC
Assay summary: Kinobeads assay, TYK2 (competition binding in mixed Molt4/Ramos cell lysate, dot blot detection)
Test parameters: Kinobeads assay, Molt4/Ramos lysate; read-out: TYK2 Band (Kinobeads assay potency, IC50)
pIC50: −log10 of the molar value.

{"columns": ["Smiles str", "pIC50"],
 "data": [
  ["O=C(Cn1cc(Nc2nccc(NCc3c(F)cccc3Cl)n2)cn1)NCC(F)F", "7.00 to 8.00"],
  ["Cn1cc(Nc2ncc(Cl)c(NCc3cccc(CS(C)(=O)=O)c3)n2)cn1", "5.00 to 6.00"],
  ["CS(=O)(=O)c1ccc(F)cc1CNc1nc(Nc2cn[nH]c2)ncc1F", "6.00 to 7.00"]
]}
